Tested on: caterpillars of the diamond-back moth (Plutella maculipennis)
procedure_details: Plutella test
Type: in vivo
run_parameters: after 7 days, active compound concentration 0.1%, dipped cabbage leaves
outcome_measure: destruction (%)
Numeric only. Scale: %

[[record]]
molecule = "CCOC(=O)OC1=C(c2cc(C)c(C)cc2C)C(=O)NC12CCC(C)CC2 (stereo not drawn)"
measured_value = 100

[[record]]
molecule = "Cc1cc(C)c(-c2c(O)c3c(oc2=O)C(C)(C)OC3(C)C)cc1C"
measured_value = 100


Task: Tell me its destruction given `Cc1cc(C)c(-c2c(O)c(C)c(-c3ccccn3)oc2=O)cc1C` as the entry.
Result: 100

* * *

In this section we review reported destruction values for a set of compounds.
Tested on: caterpillars of the diamond-back moth (Plutella maculipennis)
procedure_details: Plutella test
Type: in vivo
run_parameters: after 7 days, active compound concentration 0.1%, dipped cabbage leaves
Numeric only. Scale: %

Recorded destruction, per entry:
[[record]]
compound = "Cc1cc(C)c(-c2c(O)c(C)c(-c3ccc(F)cc3)oc2=O)cc1C"
measured_value = 100

[[record]]
compound = "CC(=O)Oc1c2c(oc(=O)c1-c1cc(C)c(C)cc1C)C(C)(C)OC2(C)C"
measured_value = 100

[[record]]
compound = "Cc1cc(C)c(C2=C(OC(=O)C(C)C)C3(CCC(C)CC3)NC2=O)cc1C (single isomer, unassigned)"
measured_value = 100


Task: Given Cc1cc(C)c(C2=C(O)C3(CCC(C)CC3)NC2=O)cc1C (stereo not shown) , report its destruction on caterpillars of the diamond-back moth (Plutella maculipennis).
Result: 100

The measurements presented in this section are drawn from patent US6933261B2.
